ASSAY_SUMMARY: NCI Yeast Anticancer Drug Screen. Data for the rad50EPP+ strain (AID 151);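 further: 0% = growth of vehicle-treated control cultures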
RUN_PARAMETERS: S. cerevisiae rad50 mutant strain, at 1.2 µM, hits give high values
The panel holds about 79,000 compounds, 15% with a hit somewhere; the sample as a whole holds those more often. Activity calls are given as the source filed them. No stated cut-off is given here; in the data, active means growth inhibition above about 70%; inactive means the rest.
MEASUREMENT_NAME: growth inhibition

Consider the molecule `COc1cccc2nc3ccccc3nc12` . State its measured growth inhibition.
1% (inactive)

Consider the molecule `c1ccc(-c2ccnc3c2ccc2c(-c4ccccc4)ccnc23)cc1` . State its measured growth inhibition.
2% (inactive)

Consider the molecule `Cc1c(C(=O)C(=O)c2ccccc2)c(C)c(C(=O)C(=O)c2ccccc2)c(C)c1C(=O)C(=O)c1ccccc1` . State its measured growth inhibition.
0% (inactive)

Consider the molecule CC1C(NNc2ccccc2)Oc2cc3c(cc2C1c1ccccc1O)OCO3 (stereo unspecified) . State its measured growth inhibition.
-1% (inactive)

Consider the molecule `O=C(Nc1ccccc1)OCCc1ccc(Cl)c(Cl)c1` . State its measured growth inhibition.
7% (inactive)

Consider the molecule `CN(C)c1ccc(C(C#N)=C(C#N)C#N)cc1` . State its measured growth inhibition.
1% (inactive)

Consider the molecule `CCCCCCCCCCCC(=O)N(C)C` . State its measured growth inhibition.
5% (inactive)

Consider the molecule `O=C(Cc1csc2[n+]1C(=O)/C(=C/c1ccc(Cl)cc1)S2)Nc1ccccc1` . State its measured growth inhibition.
2% (inactive)

Consider the molecule CCN(CC)CC(O)c1ccc2ccc3ccccc3c2c1 (stereo unspecified) . State its measured growth inhibition.
-1% (inactive)

Consider the molecule C/C(=N\O)C1CC2C=C(C#N)C1N(Cc1ccccc1)C2 (stereo unspecified) . State its measured growth inhibition.
2% (inactive)

Consider the molecule `O=C(O)c1cccc(-c2c3ccc(=O)cc-3oc3cc(O)ccc23)c1` . State its measured growth inhibition.
-10% (inactive)

---

ASSAY_SUMMARY: NCI Yeast Anticancer Drug Screen. Data for the mlh1 rad18 strain (AID 175)
RUN_PARAMETERS: S. cerevisiae mlh1 rad18 strain growth inhibition; at 50.0 µM (retest, dose inferred, filed as 5.0)
Compounds without any hit were thinned out: in the full panel of roughly 79,000, 15% have a hit. Activity calls are given as the source filed them. Cut-off read from the data, not from the text of the source: active = growth inhibition above about 70%; inactive = the rest.
Pick one: t for active, f for inactive

State the result this test recorded for `O=C(CC(=O)n1nc(-c2ccccc2)c(N=Nc2ccccc2C(=O)O)c1-c1ccccc1)Nc1ccc(Cl)cc1` .
f

State the result this test recorded for `CO[C@H]1C[C@](C)(O)Cc2cc3c(c(O)c21)C(=O)c1c(O)cc2c(c1C3=O)O[C@@H]1O[C@@]2(C)[C@H](O)[C@@H](N(C)C)[C@@H]1O` .
f

State the result this test recorded for `Oc1cccc2c(Cl)ccnc12` .
t

State the result this test recorded for `CCOC(=O)c1cnc2c(C(F)(F)F)cccc2c1N=[N+]=[N-]` .
f

State the result this test recorded for `CCc1ccc(NS(=O)(=O)c2ccccc2)c([N+](=O)[O-])c1` .
f

State the result this test recorded for `N#C/C(=C\c1cccc(OCc2ccccc2)c1)c1ccc([N+](=O)[O-])cc1` .
t

State the result this test recorded for `O=C(O)c1cccc(-c2c3ccc(=O)cc-3oc3cc(O)ccc23)c1` .
t

State the result this test recorded for `O=[n+]1c2ccc(Cl)cc2n([O-])c2ccc(Cl)cc21` .
t

State the result this test recorded for `CCCCN(CCCC)CCSc1ccc(Cl)cc1` .
t

State the result this test recorded for O=C(OCCN1CCCCCC1)C(c1ccsc1)C1CCCCC1 (stereo not given) .
f
